Where do the numbers come from? From paper PMC8041433.

biological target: AChE in neural stem cells (Homo sapiens, UniProt P22303); assay: cell-based
pIC50: −log10 of the molar value. Structures can show the parent of a compound that is named as a salt.
experimental readout: pIC50

- compound: "CCc1ccc(C(=O)C(C)CN2CCCCC2)cc1.Cl (centres unmarked) [Eperisone hydrochloride, reference compound]"
  experimental readout: "pIC50"
  endpoint value: 4.71
- compound: "CCOP(=O)(OCC)Oc1cc(C)nc(C(C)C)n1"
  experimental readout: "pIC50"
  endpoint value: 6.62
- compound: "CCOP(=O)(Sc1ccccc1)Sc1ccccc1"
  experimental readout: "pIC50"
  endpoint value: 5.88
- compound: "CCOP(=S)(OCC)Oc1cc(C)nc(C(C)C)n1"
  experimental readout: "pIC50"
  endpoint value: 6.39
- compound: "CCOP(=S)(OCC)Oc1ccc2c(C)c(Cl)c(=O)oc2c1"
  experimental readout: "pIC50"
  endpoint value: 4.65
- compound: "CN1CCc2cc(Cl)c(O)cc2[C@H]2c3ccccc3CC[C@@H]21 [Ecopipam, reference compound]"
  experimental readout: "pIC50"
  endpoint value: 4.76
- compound: "CCOP(=S)(OCC)SCSc1ccc(Cl)cc1"
  experimental readout: "pIC50"
  endpoint value: 5.53
- compound: "CCOP(=S)(OCC)O/N=C(\\C#N)c1ccccc1"
  experimental readout: "pIC50"
  endpoint value: 5.50
- compound: "CCOP(=S)(OCC)SCn1c(=O)oc2cc(Cl)ccc21"
  experimental readout: "pIC50"
  endpoint value: 4.77
- compound: "CNC(=O)ON=C(CSC)C(C)(C)C"
  experimental readout: "pIC50"
  endpoint value: 5.32
- compound: "C=CC[N+]1([C@H]2C[C@H]3[C@@H]4CC[C@H]5C[C@H](OC(C)=O)[C@@H](N6CCCCC6)C[C@]5(C)[C@H]4CC[C@]3(C)[C@H]2OC(=O)CC)CCCCC1 [Rapacuronium bromide, reference compound]"
  experimental readout: "pIC50"
  endpoint value: 5.28
- compound: "CNC(=O)Oc1ccc(N(C)C)c(C)c1"
  experimental readout: "pIC50"
  endpoint value: 4.93
- compound: "CNC(=O)Oc1cccc2c1OC(C)(C)O2"
  experimental readout: "pIC50"
  endpoint value: 4.34
- compound: "CCOP(=S)(OCC)Oc1cc(-c2ccccc2)on1"
  experimental readout: "pIC50"
  endpoint value: 5.21
- compound: "O=C(c1ccc(OCCN2CCCCC2)cc1)c1c(-c2ccc(O)cc2)sc2cc(O)ccc12 [Raloxifene hydrochloride, reference compound]"
  experimental readout: "pIC50"
  endpoint value: 4.85
- compound: "CCN1CCC2(CC1)COc1cc3c(cc12)N(C(=O)c1ccc(-c2ccc(-c4nnc(C)o4)cc2C)cc1)CC3.Cl [SB236057A]"
  experimental readout: "pIC50"
  endpoint value: 4.37
- compound: "COP(=O)(OC)SCn1c(=O)oc2cc(Cl)cnc21"
  experimental readout: "pIC50"
  endpoint value: 5.32
- compound: "O=C(Nc1cccc(C2=NCCN2)c1)Nc1cccc(C2=NCCN2)c1 [Imidocarb dipropionate, reference compound]"
  experimental readout: "pIC50"
  endpoint value: 4.71
- compound: "CCOP(=S)(OCC)OP(=S)(OCC)OCC"
  experimental readout: "pIC50"
  endpoint value: 5.90
- compound: "CNC(=O)Oc1cccc2c1OC(C)(C)C2"
  experimental readout: "pIC50"
  endpoint value: 5.66
- compound: "CCOP(=S)(Oc1cnc(C(C)(C)C)nc1)OC(C)C (centres unmarked)"
  experimental readout: "pIC50"
  endpoint value: 5.00
- compound: "CNC(=O)ON=C(C)SC"
  experimental readout: "pIC50"
  endpoint value: 5.10
- compound: "CCOC(=O)C(SP(=S)(OC)OC)c1ccccc1 (centres unmarked) [Phenthoate]"
  experimental readout: "pIC50"
  endpoint value: 4.48
- compound: "CNC(=O)Oc1ccccc1OC(C)C"
  experimental readout: "pIC50"
  endpoint value: 4.77
- compound: "CCN(CC)CCOc1ccc2c(c1)C(=O)c1cc(OCCN(CC)CC)ccc1-2 [Tilorone, reference compound]"
  experimental readout: "pIC50"
  endpoint value: 5.23
- compound: "Cc1c(Cl)c(=O)oc2cc(OP(=O)(OCCCl)OCCCl)ccc12"
  experimental readout: "pIC50"
  endpoint value: 6.41
- compound: "CCOP(=S)(OCC)SC(CCl)N1C(=O)c2ccccc2C1=O (centres unmarked)"
  experimental readout: "pIC50"
  endpoint value: 4.82
- compound: "CC(=O)Oc1cc(C(C)C)c(OCCN(C)C)cc1C [Moxisylyte hydrochloride, reference compound]"
  experimental readout: "pIC50"
  endpoint value: 4.71
- compound: "CCOP(=S)(OCC)Oc1ccc([N+](=O)[O-])cc1"
  experimental readout: "pIC50"
  endpoint value: 5.16
- compound: "CCCCOc1ccc(C(=O)CCN2CCCCC2)cc1 [Dyclonine HCl, reference compound]"
  experimental readout: "pIC50"
  endpoint value: 4.66
- compound: "CCCCSP(=O)(SCCCC)SCCCC"
  experimental readout: "pIC50"
  endpoint value: 4.40
- compound: "CCOP(=S)(OCC)Oc1nc(Cl)c(Cl)cc1Cl [Chlorpyrifos, reference compound]"
  experimental readout: "pIC50"
  endpoint value: 4.92

---

target: UniProt P22303; test: cell-based; conditions: potency (IC50), SH-SY5Y spheroids (48 h)
Where a name gives a salt, the structure may show the parent alone.
experimental readout: IC50 (µM)

- compound: "CCCCOc1ccc(C(=O)CCN2CCCCC2)cc1 [Dyclonine HCl, reference compound]"
  tested target: "UniProt P22303"
  endpoint value: 23.5
- compound: "CCOC(=O)c1ccc(NC(=O)CN2CCCCC2)cc1 [Sulcaine, reference compound]"
  tested target: "UniProt P22303"
  endpoint value: 20.9
- compound: "CNC(=O)Oc1cccc2c1OC(C)(C)C2 [Carbofuran]"
  tested target: "UniProt P22303"
  endpoint value: 0.27
- compound: "CN1CCCC(n2nc(Cc3ccc(Cl)cc3)c3ccccc3c2=O)CC1 (stereo not drawn) [Azelastine (hydrochloride), reference compound]"
  tested target: "UniProt P22303"
  endpoint value: 19.3
- compound: "CCOP(=S)(OCC)Oc1nc(Cl)c(Cl)cc1Cl [Chlorpyrifos, reference compound]"
  tested target: "UniProt P22303"
  endpoint value: 36.7
- compound: "CCOC(=O)c1cn2nc(OP(=S)(OCC)OCC)cc2nc1C [Pyrazophos]"
  tested target: "UniProt P22303"
  endpoint value: 46.2
- compound: "CC(=O)Oc1cc(C(C)C)c(OCCN(C)C)cc1C [Moxisylyte hydrochloride, reference compound]"
  tested target: "UniProt P22303"
  endpoint value: 20.9
- compound: "CNC(=O)Oc1ccccc1OC(C)C [Propoxur]"
  tested target: "UniProt P22303"
  endpoint value: 2.45
- compound: "COP(=O)(OC)SCn1c(=O)oc2cc(Cl)cnc21 [Azamethiphos]"
  tested target: "UniProt P22303"
  endpoint value: 3.3

---

These records show CC-v2 (curve classes) for recombinant human AChE (Homo sapiens).
experimental readout: CC-v2 (curve classes)

- compound: "CCOP(=S)(OCC)SCSP(=S)(OCC)OCC"
  endpoint value: -1.1
- compound: "CCOP(=S)(OCC)OC(Cl)C(Cl)(Cl)Cl (centres unmarked)"
  endpoint value: -1.1
- compound: "COP(=S)(OC)Oc1nc(Cl)c(Cl)cc1Cl"
  endpoint value: 4
- compound: "CCCCSP(=O)(SCCCC)SCCCC"
  endpoint value: -1.1
- compound: "CNC(=C[N+](=O)[O-])NCCSCc1csc(CN(C)C)n1 [Nizatidine, reference compound]"
  endpoint value: 4

---

// reported Efficacy for each item listed
molecular target: recombinant human AChE (Homo sapiens); test: biochemical
Sequence (P22303 32-614): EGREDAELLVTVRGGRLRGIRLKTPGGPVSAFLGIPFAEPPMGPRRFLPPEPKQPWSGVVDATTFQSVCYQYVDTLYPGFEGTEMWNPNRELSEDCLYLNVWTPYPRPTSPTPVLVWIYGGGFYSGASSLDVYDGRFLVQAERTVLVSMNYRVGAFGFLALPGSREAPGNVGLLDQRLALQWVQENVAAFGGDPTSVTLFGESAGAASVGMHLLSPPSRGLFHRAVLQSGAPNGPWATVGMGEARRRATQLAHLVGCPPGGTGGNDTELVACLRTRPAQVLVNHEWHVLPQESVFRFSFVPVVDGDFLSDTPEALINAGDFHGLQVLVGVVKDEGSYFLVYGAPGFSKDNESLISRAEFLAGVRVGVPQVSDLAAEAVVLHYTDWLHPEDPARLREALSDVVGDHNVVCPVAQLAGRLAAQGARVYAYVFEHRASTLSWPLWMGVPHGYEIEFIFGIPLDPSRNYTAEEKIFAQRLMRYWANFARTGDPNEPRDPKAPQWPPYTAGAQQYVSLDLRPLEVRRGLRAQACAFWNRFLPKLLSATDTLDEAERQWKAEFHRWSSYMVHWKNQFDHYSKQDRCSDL
Structures can show the parent of a compound that is named as a salt.
experimental readout: Efficacy

- compound: "CCCSP(=O)(OCC)Oc1ccc(Br)cc1Cl (centres unmarked)"
  endpoint value: -92.505
- compound: "CCCCCCCCCCCCCC[n+]1ccccc1 [Tetradecylpyridinium bromide]"
  endpoint value: -102.568
- compound: "CC[C@@H](CO)NC(=O)[C@@H]1C=C2c3cccc4c3c(cn4C)C[C@H]2N(C)C1 [Methysergide]"
  endpoint value: -98.745
- compound: "CCOP(=S)(OCC)SC(CCl)N1C(=O)c2ccccc2C1=O (centres unmarked)"
  endpoint value: -100.017
- compound: "O=C(CCC1CCN(Cc2ccccc2)CC1)c1ccc2c(c1)NCCCC2.O=C(O)/C=C/C(=O)O [Zanapezil fumerate, reference compound]"
  endpoint value: -97.056
- compound: "COP(=S)(Oc1cc(Cl)c(Br)cc1Cl)c1ccccc1 (centres unmarked)"
  endpoint value: -64.129
- compound: "CN(C)c1ccc(C(=C2C=CC(=[N+](C)C)C=C2)c2ccc(N(C)C)cc2)cc1.[Cl-] [Methylrosaniline chloride]"
  endpoint value: -113.882
- compound: "[H]/N=C(\\N/C(=N/[H])NCCCCCCNC(=N)NC(=N)Nc1ccc(Cl)cc1)Nc1ccc(Cl)cc1 [Chlorhexidine diacetate, reference compound]"
  endpoint value: -106.259
- compound: "O=C(O)/C=C/C(=O)O.O=C1c2ccccc2C(=O)N1CCc1noc(-c2ccc(CN3CCCCCC3)s2)n1"
  endpoint value: -99.042
- compound: "C=CCN1CC[C@]23CCCC[C@H]2[C@H]1Cc1ccc(O)cc13"
  endpoint value: -27.829
- compound: "CCOP(=O)(OCC)Oc1cc(C)nc(C(C)C)n1"
  endpoint value: -95.835
- compound: "COP(N)(=S)Oc1ccccc1C(=O)OC(C)C (centres unmarked)"
  endpoint value: 0
- compound: "COP(=O)(OC)SCn1c(=O)oc2cc(Cl)cnc21"
  endpoint value: -98.261
- compound: "C[n+]1cc2c3c(ccc2c2ccc4cc5c(cc4c21)OCO5)OCO3"
  endpoint value: -68.744
- compound: "COc1cc2nc(N3CCN(C(=O)C4COc5ccccc5O4)CC3)nc(N)c2cc1OC (centres unmarked) [Doxazosin mesylate]"
  endpoint value: -37.943
- compound: "Cc1cc(OC(=O)N(C)C)nn1C(=O)N(C)C"
  endpoint value: -84.168
- compound: "O=C1c2c(O)ccc(Nc3ccc(CCO)cc3)c2C(=O)c2c([N+](=O)[O-])ccc(O)c21"
  endpoint value: -62.368
